Test system: THRa:RXRa (NR concentration 90 nM, RXRa partner concentration 90 nM)
Test Protocol: PBM binding z-score (relative to random genomic background probes); higher = stronger binding; sequences stand for … in GC…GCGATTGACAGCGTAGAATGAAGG
Note to self: values exactly at 1 are class 1. So PBM binding z-score at or above 1 is class 1, below is class 0.

| Sequence Text | Category |
| --- | --- |
| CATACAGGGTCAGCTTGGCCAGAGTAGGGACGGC | class 1 |

hey, is PBM binding z-score for this one >= 1? `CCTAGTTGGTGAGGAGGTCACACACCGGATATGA` class 1

Again, but for `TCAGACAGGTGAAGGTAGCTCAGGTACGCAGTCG` class 0

----------
Tested on: LXRa homodimer (NR concentration 270 nM)
Test Protocol: PBM binding z-score (relative to random genomic background probes); higher = stronger binding; sequences stand for … in GC…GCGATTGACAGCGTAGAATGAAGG
Assay Readout: PBM binding z-score
Could you respond with only the numeric value?

| Sequence Text | PBM binding z-score |
| --- | --- |
| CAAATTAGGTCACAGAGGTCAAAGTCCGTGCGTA | 7.83 |
| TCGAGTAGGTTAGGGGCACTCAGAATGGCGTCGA | -0.34 |
| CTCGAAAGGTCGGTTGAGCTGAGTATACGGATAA | -0.605 |
| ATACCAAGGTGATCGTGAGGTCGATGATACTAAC | 0.482 |
| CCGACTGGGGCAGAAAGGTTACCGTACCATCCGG | -0.0357 |

Reported PBM binding z-score, sequence `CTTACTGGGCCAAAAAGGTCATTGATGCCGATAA` : ____ 3.31

Again, but for `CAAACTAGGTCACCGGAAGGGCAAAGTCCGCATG` 0.736

Again, but for `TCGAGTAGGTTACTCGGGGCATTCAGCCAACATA` -0.382

Again, but for `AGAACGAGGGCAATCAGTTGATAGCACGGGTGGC` -0.0973

Again, but for `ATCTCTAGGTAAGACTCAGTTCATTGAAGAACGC` 1.32

Again, but for `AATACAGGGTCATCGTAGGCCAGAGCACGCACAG` 2.28

Again, but for `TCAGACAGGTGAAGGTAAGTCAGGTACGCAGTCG` -0.273

----------
Test system: PXR homodimer (NR concentration 270 nM)
Test Protocol: PBM binding z-score (relative to random genomic background probes); higher = stronger binding; sequences stand for … in GC…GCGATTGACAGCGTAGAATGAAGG
Below, each entry is listed with its recorded PBM binding z-score.

Worked cases, answers included:
| Sequence Text | Assayed System | PBM binding z-score |
| --- | --- | --- |
| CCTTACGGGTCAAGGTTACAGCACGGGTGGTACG | PXR homodimer (NR concentration 270 nM) | -0.0469 |
| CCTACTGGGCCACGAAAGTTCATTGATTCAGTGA | PXR homodimer (NR concentration 270 nM) | 6.21 |
| GCTTACGGGTCAAAGGTTATCGCATGAATAGAAT | PXR homodimer (NR concentration 270 nM) | 0.364 |
| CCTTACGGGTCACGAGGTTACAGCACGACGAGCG | PXR homodimer (NR concentration 270 nM) | 0.46 |
| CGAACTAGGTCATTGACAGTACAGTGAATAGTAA | PXR homodimer (NR concentration 270 nM) | 0.291 |

Reported PBM binding z-score, sequence `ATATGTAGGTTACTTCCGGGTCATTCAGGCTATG` : ____ 1.81

Again, but for `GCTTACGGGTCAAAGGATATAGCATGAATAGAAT` -0.166

Again, but for `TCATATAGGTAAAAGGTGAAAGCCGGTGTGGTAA` 0.293

Again, but for `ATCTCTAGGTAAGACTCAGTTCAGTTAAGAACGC` 1.83

Again, but for `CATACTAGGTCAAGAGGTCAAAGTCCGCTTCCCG` 2.53

Again, but for `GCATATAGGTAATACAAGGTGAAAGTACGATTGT` 0.0601

Again, but for `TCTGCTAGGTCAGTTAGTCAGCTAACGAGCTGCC` -0.871

Again, but for `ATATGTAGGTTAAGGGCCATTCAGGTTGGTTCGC` 0.768
